# procedureSummary: Pharmacokinetic data from toxicology study in dogs, one-hour intravenous infusion
# Type: in vivo
# condition: both sexes, dog, plasma, iv; 15 mg/kg, 60 min infusion, mean of two dogs; read-out: AUC
assayMetric: AUC (ng·h/mL)

structurenotation=CC1(C)CCC2=C(O1)c1ccccc1C(=O)C2=O valuemeasured=20200

----------
# procedureSummary: Pharmacokinetics after intravenous infusion in rats, HPBCD formulation
# condition: male, Sprague-Dawley, rat, plasma, intravenous, elimination half-life, one-hour infusion, doses in the range 5-15 mg/kg
assayMetric: half-life

structurenotation=CC1(C)CCC2=C(O1)c1ccccc1C(=O)C2=O valuemeasured="4.5 to 7 h"

----------
# Test system: PaCa-2
# procedureSummary: cells
# condition: human, 4 h
assayMetric: CC50

compound="CC1(C)CCC2=C(O1)c1ccccc1C(=O)C2=O [β-lapachone]" valuemeasured="1520 nM"
